# Test system: OVCAR-3
# measurementNotes: NCI tumour cell line growth inhibition, 48 h
The source made the active and inactive calls. No stated cut-off is given here; in the data, active = GI50 up to about 1.1 µM and inactive = higher.
# GI50 annotations

# molecule, measurementName, result
rows = [
    ("CCOc1ccc(/N=N/c2ccc3oc(=O)c(/C(C)=N/NC(=O)CC(=O)Nc4cccc(OC)c4)cc3c2)cc1", "GI50", "13.4 µM (inactive)"),
    ("O=C(CSc1nc2ccccc2s1)c1sc2sc3ccccc3[n+]2c1[O-]", "GI50", "> 100 µM (inactive)"),
    ("CC1(C)CSCC(C)(C)C(=N/N)/C1=N\\N", "GI50", "> 100 µM (inactive)"),
    ("O=C1C(N2C(=O)c3ccccc3C2=O)CN1C(COCc1ccccc1)c1ccc(OCc2ccccc2)cc1 (stereo not given)", "GI50", "> 100 µM (inactive)"),
]

Record summary for COC(=O)n1c(=O)n(-c2ccccc2)c(=O)n1C(=O)OC : reported GI50 = > 100 µM (inactive)

Record summary for CC(=O)O[C@@H]1CC[C@@]2(C)C(CC[C@H]3[C@@H]4CC[C@H]([C@H](C)CCc5nc6cc(C)ccc6[nH]5)[C@@]4(C)CC[C@@H]32)C1 (stereo not given in full) : reported GI50 = 20.9 µM (inactive)

Record summary for c1ccc2c(c1)Sc1nccc3ccnc-2c13 : reported GI50 = > 100 µM (inactive)

Record summary for Clc1ccc(CCN2CCN(CCCc3ccccc3)CC2)cc1Cl : reported GI50 = 16.4 µM (inactive)

Record summary for COc1cc(C2C(C(=O)Nc3ccccc3)=C(C)NC(C)=C2C(=O)Nc2ccccc2)ccc1O : reported GI50 = 23 µM (inactive)

Record summary for N#CCC1(c2ccc(Cl)cc2)NC(=O)c2ccccc21 (stereo not given) : reported GI50 = > 100 µM (inactive)

Record summary for O=C(N/N=C/c1ccccc1)c1c(-c2cccnc2)cnc2ccccc12 : reported GI50 = > 100 µM (inactive)

Record summary for CCOC(=O)/C(C#N)=N\Nc1ccc(-n2c(C)nc3ccc(Br)cc3c2=O)cc1 : reported GI50 = 52.7 µM (inactive)

Record summary for O=c1[nH]nc(Cc2ccc(Cl)cc2)n1/N=C/c1ccco1 : reported GI50 = > 100 µM (inactive)

Record summary for COC(=O)C(C(=O)C(=O)Nc1ccc(C(F)(F)F)cc1[N+](=O)[O-])c1csc(-n2nc(-c3ccccc3)cc2-c2ccccc2)n1 (stereo not given) : reported GI50 = > 100 µM (inactive)

Record summary for CCc1cccc(CC)c1NC(=O)C1=C(C)NC(C)=C(C(=O)Nc2c(CC)cccc2CC)C1c1ccc2c(c1)OCO2 : reported GI50 = 13.9 µM (inactive)

Record summary for C=Cc1c(-c2ccccc2)cnc2[nH]c3ccccc3c12 : reported GI50 = > 50 µM (inactive)

Record summary for CCSC12CC3c4cccc5c4C(CN5C(=O)c4ccccc4)CC3(O1)N(C)C2=O (stereo not given) : reported GI50 = 40.8 µM (inactive)

Record summary for COc1c(O)c(C=O)c2c(O)c(-c3c(C)cc4c(C(C)C)c(OC)c(O)c(C=O)c4c3O)c(C)cc2c1C(C)C [6,6'-METHOXYGOSSYPOL] : reported GI50 = 3.37 µM (inactive)

Record summary for Cc1ccc(S(=O)(=O)NC(CN)C(=O)O)cc1 (stereo not given) : reported GI50 = > 100 µM (inactive)

Record summary for Cc1cc2c(cc1C)NC(=O)C(NC(=O)/C=C/c1ccccc1)C=N2 (stereo not given) : reported GI50 = 20.1 µM (inactive)
